system tested: GLP-1 receptor (human, UniProt P43220 24-463)
assay remarks: cell-based or functional assay
Starred links: 1 amine or outer side, 2 acyl side, 3 side chain; linkers in the order of their positions; H or OH if unused. Non-standard residues stand in square brackets, D forms with d. Groups on a side chain read outwards from the residue. Primed or numbered codes have the meaning given here. No end group written: not given here. *: point of attachment. γGlu = O=C(O)[C@H](CCC(=O)[*:2])N[*:1]; Stearoyl = CCCCCCCCCCCCCCCCCC(=O)*; αMeF = C[C@](N)(Cc1ccccc1)C(=O)O; αMeK = C[C@](N)(CCCCN)C(=O)O; αMeS = C[C@](N)(CO)C(=O)O; PEG2′ = not defined here; Aib = CC(C)(N)C(=O)O
recorded metric: Primary assay EC50 (cAMP), n2

[
  {
    "binder": "H[Aib]EGS[αMeF]TSDV[αMeS]S[αMeF]LEGEAAK([PEG2′-PEG2′-γGlu-Stearoyl])E[αMeF]IA[αMeF]VV[αMeK]GG-NH2 [SEQ ID NO 33]",
    "recorded metric": "Primary assay EC50 (cAMP), n2",
    "meas value": "0.14 nM"
  },
  {
    "binder": "H[Aib]EGS[αMeF]TSDV[αMeS]S[αMeF]LEGEAAK([PEG2′-PEG2′-γGlu-Stearoyl])E[αMeF]IA[αMeF]VV[αMeK]GG-NH2 [SEQ ID NO 3]",
    "recorded metric": "Primary assay EC50 (cAMP), n2",
    "meas value": "0.14 nM"
  },
  {
    "binder": "H[Aib]EGS[αMeF]TSDV[αMeS]S[αMeF]LEGEAAK([PEG2′-PEG2′-PEG2′-Stearoyl])E[αMeF]IA[αMeF]VVKGG-NH2 [SEQ ID NO 56]",
    "recorded metric": "Primary assay EC50 (cAMP), n2",
    "meas value": "0.0035 nM"
  },
  {
    "binder": "H[Aib]EGS[αMeF]TSDV[αMeS]SYLEGEAAK([PEG2′-PEG2′-PEG2′-Stearoyl])E[αMeF]IA[αMeF]VV[αMeK]GG-NH2 [SEQ ID NO 53]",
    "recorded metric": "Primary assay EC50 (cAMP), n2",
    "meas value": "0.0009 nM"
  }
]
